target: dopaminergic receptor D3 (Homo sapiens, UniProt P35462); construct: expressed in transfected cells; host or cells: recombinant human cells (so in the source); assay: Inhibition constants (Ki) for dopaminergic receptor D3 in recombinant cells; assay type: binding; settings: read-out: pKi D3 (converted)
Sequence (P35462 whole entry): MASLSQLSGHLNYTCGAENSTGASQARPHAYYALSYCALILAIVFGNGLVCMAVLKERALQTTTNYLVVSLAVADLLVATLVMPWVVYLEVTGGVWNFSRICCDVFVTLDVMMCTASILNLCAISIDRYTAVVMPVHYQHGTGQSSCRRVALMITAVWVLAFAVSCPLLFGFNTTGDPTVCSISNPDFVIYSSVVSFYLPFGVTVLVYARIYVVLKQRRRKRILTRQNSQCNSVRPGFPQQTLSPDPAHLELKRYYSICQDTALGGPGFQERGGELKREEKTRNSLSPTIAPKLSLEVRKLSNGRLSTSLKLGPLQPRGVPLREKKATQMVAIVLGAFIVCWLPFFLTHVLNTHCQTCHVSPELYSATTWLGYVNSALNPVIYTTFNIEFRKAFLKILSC
For each of the molecules below, state its Ki.
Note: unit nM is implicit; provide only the numeric part.

Enquiry: Sample O=C1OCCN1CCC1CCN(C[C@H]2COc3c(Cl)cc(F)cc3O2)CC1 — what was its Ki?
Return: 0.603

Enquiry: Sample O=C1OC[C@@H](COc2ccccc2)N1CCC1CCN(C[C@H]2COc3ccc(Br)cc3O2)CC1 — what was its Ki?
Return: 0.417

Enquiry: Sample O=C1OC[C@@H](CO)N1CCC1CCN(C[C@H]2COc3c(Cl)cc(F)cc3O2)CC1 — what was its Ki?
Return: 1.32

Enquiry: Sample O=C1OCCN1CCC1CCN(C[C@H]2COc3c(F)cc(F)cc3O2)CC1 — what was its Ki?
Return: 1.55

Enquiry: Sample Cc1ccc2c(c1)O[C@@H](CN1CCC(CCN3C(=O)OC[C@@H]3Cc3ccccc3)CC1)CO2 — what was its Ki?
Return: 0.525

Enquiry: Sample O=C1OC[C@H](Cc2ccccc2)N1CCC1CCN(C[C@H]2COc3ccc(Br)cc3O2)CC1 — what was its Ki?
Return: 0.447

Enquiry: Sample N#Cc1ccc2c(c1)O[C@@H](CN1CCC(CCN3CCOCC3=O)CC1)CO2 — what was its Ki?
Return: 1.23

Enquiry: Sample O=C1COCCN1CCC1CCN(C[C@H]2COc3c(F)cc(F)cc3O2)CC1 — what was its Ki?
Return: 3.31

* * *

target: D2 receptor (Homo sapiens, UniProt P14416); construct: expressed in transfected cells; host or cells: recombinant human cells (so in the source); test: Intrinsic (agonist) activity at the D2 receptor; assay type: cell-based
Sequence (P14416 1-414 isoform P14416-2): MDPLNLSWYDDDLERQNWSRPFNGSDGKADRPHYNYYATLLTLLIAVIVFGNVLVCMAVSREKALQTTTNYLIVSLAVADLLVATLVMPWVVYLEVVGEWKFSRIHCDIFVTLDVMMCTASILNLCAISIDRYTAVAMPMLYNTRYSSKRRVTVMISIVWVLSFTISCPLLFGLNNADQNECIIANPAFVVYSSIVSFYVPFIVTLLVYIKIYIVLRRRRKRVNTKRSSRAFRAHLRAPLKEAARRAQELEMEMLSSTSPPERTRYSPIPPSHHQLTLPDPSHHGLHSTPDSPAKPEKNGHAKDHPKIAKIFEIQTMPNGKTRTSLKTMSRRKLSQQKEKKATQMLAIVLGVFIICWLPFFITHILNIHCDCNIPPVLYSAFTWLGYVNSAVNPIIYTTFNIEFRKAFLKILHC
For each of the compounds below, state its I.A.: Intrinsic activity on receptor D2 in vitro.

Enquiry: Sample O=C1COCCN1CCC1CCN(C[C@H]2COc3c(F)cc(F)cc3O2)CC1 — what was its I.A.: Intrinsic activity on receptor D2 in vitro?
Return: 24 percentage of that of dopamine

Enquiry: Sample O=C1COCCN1CCC1CCN(C[C@H]2COc3c(F)cc(Cl)cc3O2)CC1 — what was its I.A.: Intrinsic activity on receptor D2 in vitro?
Return: 0 percentage of that of dopamine

Enquiry: Sample O=C1OCCN1CCC1CCN(C[C@H]2COc3ccc(F)cc3O2)CC1 — what was its I.A.: Intrinsic activity on receptor D2 in vitro?
Return: 36 percentage of that of dopamine

Enquiry: Sample O=C1OC[C@@H](COc2ccccc2)N1CCC1CCN(C[C@H]2COc3ccc(Br)cc3O2)CC1 — what was its I.A.: Intrinsic activity on receptor D2 in vitro?
Return: 13 percentage of that of dopamine

Enquiry: Sample Cc1ccc2c(c1)O[C@@H](CN1CCC(CCN3C(=O)OC[C@@H]3Cc3ccccc3)CC1)CO2 — what was its I.A.: Intrinsic activity on receptor D2 in vitro?
Return: 0 percentage of that of dopamine

Enquiry: Sample O=C1OCCN1CCC1CCN(C[C@H]2COc3c(Cl)cc(F)cc3O2)CC1 — what was its I.A.: Intrinsic activity on receptor D2 in vitro?
Return: 16 percentage of that of dopamine

Enquiry: Sample O=C1OC[C@H](Cc2ccccc2)N1CCC1CCN(C[C@H]2COc3ccc(Br)cc3O2)CC1 — what was its I.A.: Intrinsic activity on receptor D2 in vitro?
Return: 8 percentage of that of dopamine

Enquiry: Sample O=C1OCCN1CCC1CCN(C[C@H]2COc3c(F)cc(F)cc3O2)CC1 — what was its I.A.: Intrinsic activity on receptor D2 in vitro?
Return: 6 percentage of that of dopamine

Enquiry: Sample O=C1OC[C@@H](CO)N1CCC1CCN(C[C@H]2COc3c(F)cc(Cl)cc3O2)CC1 — what was its I.A.: Intrinsic activity on receptor D2 in vitro?
Return: 0 percentage of that of dopamine

Enquiry: Sample O=C1OC[C@@H](CO)N1CCC1CCN(C[C@H]2COc3c(Cl)cc(F)cc3O2)CC1 — what was its I.A.: Intrinsic activity on receptor D2 in vitro?
Return: 5 percentage of that of dopamine
